# target or system: furin, P09958;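 note: purified furin at 1:10 enzyme:substrate in 50 mM HEPES pH 7.5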
# Sequence (P09958 whole entry): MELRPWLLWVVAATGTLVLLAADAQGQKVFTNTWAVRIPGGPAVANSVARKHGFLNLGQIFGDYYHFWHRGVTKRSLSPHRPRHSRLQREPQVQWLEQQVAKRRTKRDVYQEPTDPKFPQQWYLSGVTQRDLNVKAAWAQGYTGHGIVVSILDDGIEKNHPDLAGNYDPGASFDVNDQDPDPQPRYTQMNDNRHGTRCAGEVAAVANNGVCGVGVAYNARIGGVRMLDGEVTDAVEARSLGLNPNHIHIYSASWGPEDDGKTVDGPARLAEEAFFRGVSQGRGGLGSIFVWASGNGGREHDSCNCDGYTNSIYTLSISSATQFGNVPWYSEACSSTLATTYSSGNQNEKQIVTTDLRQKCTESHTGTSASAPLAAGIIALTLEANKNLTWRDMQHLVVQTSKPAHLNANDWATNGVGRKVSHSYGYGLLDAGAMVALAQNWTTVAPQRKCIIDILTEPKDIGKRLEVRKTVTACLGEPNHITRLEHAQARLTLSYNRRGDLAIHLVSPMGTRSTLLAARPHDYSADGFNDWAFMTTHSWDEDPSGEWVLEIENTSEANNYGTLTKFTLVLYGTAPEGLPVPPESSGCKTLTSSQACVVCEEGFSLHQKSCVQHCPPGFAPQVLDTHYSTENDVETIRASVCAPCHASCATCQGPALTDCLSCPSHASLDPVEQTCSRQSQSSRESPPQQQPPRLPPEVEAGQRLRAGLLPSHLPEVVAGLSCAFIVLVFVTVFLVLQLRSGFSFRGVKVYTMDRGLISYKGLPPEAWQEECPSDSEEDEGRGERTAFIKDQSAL
# measurement notes: furin cleavage Z-score vs untreated control; higher = more cleavage, active = 3.5 or more, inactive = 1 or less, 8 variable residues between constant flanks
# condition details: 15 min
This is one part of the list. The true hit rate is not given.
metric name: furin cleavage Z-score

In [3]: df
Out[3]:
                  item_sequence  result_number
0  CARRRRRKESAGNASASA [FS-2298]           3.94
1    CALVALGINAAGNASASA [HC864]         -0.504
2   CAVPSTEDLVAGNASASA [HC1097]         -0.505
3    CADMMMNWSPAGNASASA [HC321]         -0.337
